B1: ZNF263 (parent)
chain: CSECGESFSRSSRLMSHQRTHTG

variants of: B1; assay: protein stability index of a GFP-peptide fusion (GPS, HEK-293T) (PSI 1-6); higher = more stable; settings: c terminus: native;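 also: lentivirally expressed fusions sorted by FACS into six bins by GFP to DsRed ratio, PSI derived from sequencing read proportions per bin multiplied by bin number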
Measured protein stability index of individual entries
Number, no unit, nothing else.

Examples from the recorded data:
CHAIN_SEQUENCE	VALUE_REPORTED
CSECGESFSPSSRLMSHQRTHTG [R10P]	2
CSECGEYFSRSSRLMSHQRTHTG [S7Y]	3.8
CSECGESFSRSSRLMSHQRQHTG [T20Q]	3.26
CSECGESFSRSSRLMSHQRTHLG [T22L]	4.2

protein stability index recorded for this variant, CSECGESFSRSSRLMSHQRTHTS [G23S] , is 4

Consider CKECGESFSRSSRLMSHQRTHTG [S2K] . Its measured protein stability index is 2.51

protein stability index reading for CSECGESFSRSSRLMSHQHTHTG [R19H] : 4.51
